Target: Bromodomain adjacent to zinc finger domain protein 2B (Homo sapiens) (UniProt Q9UIF8)
Sequence (Q9UIF8 whole entry, looked up, the tested form may be a part): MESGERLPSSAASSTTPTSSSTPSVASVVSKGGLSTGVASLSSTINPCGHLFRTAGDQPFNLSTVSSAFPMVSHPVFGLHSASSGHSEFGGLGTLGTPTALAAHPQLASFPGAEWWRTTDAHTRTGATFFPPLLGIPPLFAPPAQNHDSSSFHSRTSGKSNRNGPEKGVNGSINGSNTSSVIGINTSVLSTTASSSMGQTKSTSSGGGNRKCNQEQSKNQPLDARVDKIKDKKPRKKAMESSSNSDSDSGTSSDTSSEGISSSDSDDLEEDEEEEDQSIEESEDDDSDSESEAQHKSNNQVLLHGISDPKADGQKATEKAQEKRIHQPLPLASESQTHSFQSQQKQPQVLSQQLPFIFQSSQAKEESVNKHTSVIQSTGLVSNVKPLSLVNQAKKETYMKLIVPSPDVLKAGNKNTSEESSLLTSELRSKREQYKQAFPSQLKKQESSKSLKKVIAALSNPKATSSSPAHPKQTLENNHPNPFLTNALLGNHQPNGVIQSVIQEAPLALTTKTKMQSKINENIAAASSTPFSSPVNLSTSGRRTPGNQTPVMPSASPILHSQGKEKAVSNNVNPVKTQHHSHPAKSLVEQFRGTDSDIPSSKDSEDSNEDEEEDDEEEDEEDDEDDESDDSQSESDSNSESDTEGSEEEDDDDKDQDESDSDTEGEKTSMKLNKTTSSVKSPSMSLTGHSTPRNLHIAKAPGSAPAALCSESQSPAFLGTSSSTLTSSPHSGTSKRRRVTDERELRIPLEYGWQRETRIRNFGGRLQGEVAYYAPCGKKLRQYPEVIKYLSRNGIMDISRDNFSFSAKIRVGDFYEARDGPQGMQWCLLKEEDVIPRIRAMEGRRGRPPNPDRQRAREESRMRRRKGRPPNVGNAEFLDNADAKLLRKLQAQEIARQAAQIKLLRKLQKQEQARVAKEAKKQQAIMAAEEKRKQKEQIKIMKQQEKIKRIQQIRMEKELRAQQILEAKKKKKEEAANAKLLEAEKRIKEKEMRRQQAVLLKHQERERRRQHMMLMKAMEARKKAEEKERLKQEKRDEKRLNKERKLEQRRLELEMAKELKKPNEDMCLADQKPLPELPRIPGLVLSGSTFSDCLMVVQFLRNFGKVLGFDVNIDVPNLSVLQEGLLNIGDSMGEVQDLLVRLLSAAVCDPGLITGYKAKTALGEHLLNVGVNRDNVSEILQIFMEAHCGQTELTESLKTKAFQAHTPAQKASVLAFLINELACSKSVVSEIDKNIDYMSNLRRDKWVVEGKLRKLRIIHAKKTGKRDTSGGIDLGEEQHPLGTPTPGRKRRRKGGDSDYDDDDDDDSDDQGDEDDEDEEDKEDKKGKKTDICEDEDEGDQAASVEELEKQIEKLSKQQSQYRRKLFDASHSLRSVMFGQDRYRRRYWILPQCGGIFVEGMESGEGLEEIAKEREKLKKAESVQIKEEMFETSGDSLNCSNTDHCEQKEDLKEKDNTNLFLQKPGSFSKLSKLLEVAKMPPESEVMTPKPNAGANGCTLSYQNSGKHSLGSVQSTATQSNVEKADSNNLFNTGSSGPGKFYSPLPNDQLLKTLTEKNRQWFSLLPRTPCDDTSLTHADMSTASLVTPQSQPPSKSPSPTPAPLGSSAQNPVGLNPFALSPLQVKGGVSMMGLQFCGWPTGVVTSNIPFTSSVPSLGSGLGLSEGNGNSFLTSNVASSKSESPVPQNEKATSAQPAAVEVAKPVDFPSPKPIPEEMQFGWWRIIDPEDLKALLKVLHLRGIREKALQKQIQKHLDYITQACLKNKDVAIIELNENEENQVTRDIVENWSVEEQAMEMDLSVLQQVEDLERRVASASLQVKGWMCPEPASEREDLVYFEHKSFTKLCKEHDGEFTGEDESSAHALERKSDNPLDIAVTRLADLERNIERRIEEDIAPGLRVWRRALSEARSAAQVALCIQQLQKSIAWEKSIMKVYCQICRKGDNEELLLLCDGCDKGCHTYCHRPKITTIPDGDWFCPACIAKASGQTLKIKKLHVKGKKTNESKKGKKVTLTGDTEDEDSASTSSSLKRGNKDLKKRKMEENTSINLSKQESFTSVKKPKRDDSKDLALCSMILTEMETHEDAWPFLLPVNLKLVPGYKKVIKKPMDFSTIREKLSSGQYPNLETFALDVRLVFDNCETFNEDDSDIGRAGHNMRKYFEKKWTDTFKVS
Assay: qHTS Assay for Inhibitors of BAZ2B; also: nearly all actives have a fitted effect of over 60% in size
Conditions: AlphaScreen BAZ2B-H3K14Ac peptide displacement; series mostly up to 114 µM
From the text: BAZ2B (bromodomain adjacent to zinc finger domain, 2B) belongs to a family of ubiquitously expressed bromodomain containing proteins, which biological function has not yet been elucidated. […] Yasgar, et al. Compound Management for Quantitative High-Throughput Screening. […] Inglese, et al. Quantitative high-throughput screening: a titration-based approach that efficiently identifies biological activities in large chemical libraries. […]
About 16,000 (4.4%) of roughly 360,000 compounds were called active. Roughly 9% stayed inconclusive and do not appear here. Calls follow the shape of the dose curve; as a rule, active = well fitted inhibition curve with a large enough effect; inconclusive = small, poorly fitted or top-dose-only effect; inactive = no such curve, though single readings can be large or run the other way. Only a selection was taken, and actives are over-represented in it overall.
Respond using exactly one of the listed classes: T = active, F = inactive

INSERT INTO measurements (compound, cat) VALUES
  ('CCOc1cc(C(=O)O)ccc1OCCOc1ccccc1', 'F'),
  ('CCCCOC(=O)CSc1ncnc2sc3c(c12)CCC(C)C3 (stereo not given)', 'F'),
  ('CCOC(=O)c1c(NC(=O)/C(C#N)=C/c2ccccc2)sc2c1CCC2', 'F'),
  ('CC(C)c1ccc(OCC(=O)N(Cc2ccc(N(C)C)cc2)C2CCS(=O)(=O)C2)cc1 (stereo not given)', 'T');

Hi team, can someone confirm the assay call for Cc1ccc(CN(C(=O)COc2ccc(Cl)cc2C)C2CCS(=O)(=O)C2)o1 (stereo not given) ?
F

Hi team, can someone confirm the assay call for `O=C(NCCC1=CCCCC1)c1ccc2c(c1)N(Cc1ccccc1F)C(=O)c1ccccc1S2(=O)=O` ?
F

Hi team, can someone confirm the assay call for `COc1cccc(NC(=O)CN2C(=O)c3ccccc3Sc3ncccc32)c1` ?
F

Hi team, can someone confirm the assay call for `CCOc1cccc2c1N[C@@H](c1ccc(C(=O)O)cc1)[C@H]1CC=C[C@@H]21` ?
T

Hi team, can someone confirm the assay call for `CCOC(=O)c1c(/N=C/c2cc(C)ccc2O)sc2c1CCC2` ?
T

Hi team, can someone confirm the assay call for COc1cc(C(=O)N(Cc2ccc(N(C)C)cc2)C2CCS(=O)(=O)C2)cc(OC)c1OC (stereo not given) ?
F

====

Biological target: Bromodomain adjacent to zinc finger domain protein 2B (Homo sapiens)
Experiment: qHTS Assay for Inhibitors of BAZ2B; also: nearly all actives have a fitted effect of over 60% in size
Conditions: AlphaScreen BAZ2B-H3K14Ac peptide displacement; series mostly up to 114 µM
Hit rate of the full screen: of about 360,000 compounds, about 16,000 (4.4%) were called active. Roughly 9% stayed inconclusive and do not appear here. Calls come from the whole dose curve; as a rule, active = well fitted inhibition curve with a large enough effect; inconclusive = small, poorly fitted or top-dose-only effect; inactive = no such curve, though single readings can be large or run the other way. Shown is part of a subset that was picked to be rich in actives.
Respond using exactly one of the listed classes: label 1 (active), label 0 (inactive)

INSERT INTO assay_data (compound, target_or_system, cat) VALUES
  ('COc1cccc(CNC(=O)C(=O)NCC(c2cccs2)S(=O)(=O)c2ccccc2)c1 (stereo not given)', 'Bromodomain adjacent to zinc finger domain protein 2B (Homo sapiens)', 'label 0'),
  ('COc1cc(C(=O)Nc2ccc(-n3c(C)nc4ccccc4c3=O)cc2)cc(OC)c1OC', 'Bromodomain adjacent to zinc finger domain protein 2B (Homo sapiens)', 'label 0'),
  ('CC(C)(C)c1ccc(NC(=O)COC(=O)CCc2nc3ccccc3c(=O)[nH]2)cc1', 'Bromodomain adjacent to zinc finger domain protein 2B (Homo sapiens)', 'label 0'),
  ('CC(=O)c1ccc(NC(=O)CCc2nc(-c3ccc(C)cc3)no2)cc1', 'Bromodomain adjacent to zinc finger domain protein 2B (Homo sapiens)', 'label 0'),
  ('Cc1ccc(Oc2c(C(F)(F)F)oc3c(CN4CCCCC4)c(O)ccc3c2=O)cc1', 'Bromodomain adjacent to zinc finger domain protein 2B (Homo sapiens)', 'label 0');

Hi team, can someone confirm the assay call for `Cc1ccc(C(C)C)cc1OCC(=O)Nc1ccccc1N1CCCC1` ?
label 0

Hi team, can someone confirm the assay call for `COc1ccc(CNC(=O)c2cc3cccc(OC)c3oc2=O)cc1` ?
label 0

Hi team, can someone confirm the assay call for `COc1ccc(Cl)cc1NC(=O)Cn1c(=O)c2ccccc2n2nncc12` ?
label 0

Hi team, can someone confirm the assay call for `COc1ccc(S(=O)(=O)c2c(Nc3ccc(C)cc3)sc(C(=O)c3ccc(C)cc3)c2N)cc1` ?
label 0

Hi team, can someone confirm the assay call for `CCN(c1ccc(NC(=O)COC(=O)CCc2nc3ccccc3n2-c2ccccc2)cc1)C(C)C` ?
label 1
